MEASURED TARGET: T1, rhIL-17A (human, UniProt Q16552 24-155)
T1 sequence: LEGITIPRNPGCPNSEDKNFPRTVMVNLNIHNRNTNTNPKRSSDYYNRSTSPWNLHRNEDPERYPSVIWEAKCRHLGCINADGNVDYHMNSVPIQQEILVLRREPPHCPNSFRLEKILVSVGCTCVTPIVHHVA
PROCEDURE TEXT: cell-based or functional assay
Each entry below lists one item and its recorded IC50, inhibition of IL-6 production in NHDF cells, rhIL-17A value.
A number alone suffices; assume nM.

Would you please look over these solved cases?
# BINDER, NUMERIC RESULT
data = [
    ("rat 23E12 (antibody, V domains shown, Parental rat monoclonal antibody (hybridoma PTA-7740)) VH: QVQLKESGPGLVQPSQTLSLTCTVFGFSLTNNGVTWVRQPPGKGLEWIAEVSSGGSTDYNSALKSRLSISRDTSKSQVFLRMNSLQTEDTAIYFCARQEVFTGLLDYWGQGVMVTVSS VL: DIQMTQSPASLSASLGETVTIQCQASEDIYSGLAWYHQKPGKSPQLLILGASRLHDGVPSRFSGSGSGIEYSLKINNMQTEDEGIYFCQQGLKYPPTFGGGTKLELKR", 1),
    ("rat 1D10 (antibody, V domains shown, Parental rat monoclonal antibody; also called ID10; anti-IL-17A antibody 1D10) VH: QVQLKESGPGLVQPSQTLSLTCTVSGFSLTNYYVHWVRQPPGKGLEWMGGVWNDGDTSYNSVLRSRLSITRDTSKSQVLLKMSSLQTEDTATYYCAREGREGFVGYYVMDAWGPGASVTVSS VL: DIQMTQSPSFLSASVGERVTLSCKASQNINKYLDWFQQKLGEAPKLLIYNADNLHTGIPSRFSGSGSFSDFILTISSLQPEDDATYFCLQRESWPYTFGAGTKLELKR", 1),
    ("rat 4C3 (antibody, V domains shown) VH: QVELRESGPGLVQPSQTLSLTCTVSGFSLPSHSVSWIRQPPGKGLEWMGIIWNNGGTDYNSAFKSRLTISRDTSKSQVFLKMNSLQTEDTAMYFCARNMYITDYYYENYFMDAWGQGASVTVSS VL: DIVMTQSPSSLAVSVGETVTLNCKSSQSLLFSENQKNYLAWYQHKSGQSPKLLVYWTSTRQSGVPDRFMGSGSGTDFTLTISSVQAEDLAIYYCQQSYYTPYTFGAGTKLELKR", 0.5),
    ("rat 30C10 (antibody, V domains shown, Parental rat monoclonal antibody (hybridoma PTA-7739); also called 30C10C) VH: EVQLVESGGGLVQPGRSQKLSCVVSGFTFNNYWMTWIRQAPGKGLEWVASVSNTGSSTYYPASVKGRFTISRDNAKSTLYLQMNSLRSEDTATYYCTREGAYYLDYWGQGVMVTVSS VL: DIVMTQSPSSLAVSPGETVTINCKSSQSLFWSESHMNYLAWYQQKPGQSPKLLIYYASTRQSGVPDRFIGSGSGTDFTLTISGVQAEDLAVYYCHHHYDSHTFGAGTKLELKR", 0.5),
]

// below: IC50, inhibition of IL-6 production in NHDF cells, rhIL-17A requested for another binder
In: Please give the measured IC50, inhibition of IL-6 production in NHDF cells, rhIL-17A for this binder: rat 16C10 (antibody, rat IgG1, V domains shown, also called 16C10C; antibody 16C10) VH: QVELRESGPGLVQPSQTLSLTCTVSGFSLPSHSVSWIRQPPGKGLEWMGIIWNNGGTDYNSAFKSRLTISRDTSKSQVFLKMNSLQTEDTAMYFCARNMYITDYYYENYFMDAWGQGASVTVSS VL: DIVMTQSPSSLAVSIGETVTLNCKSSQSLLFSENQKNYLAWYQHKSGQSPKLLVYWTSTRQSGVPDRFMGSGSGTDFTLTISSVQAEDLAIYYCQQSYYTPYTFGAGTKLELKR
Out: 0.5

Attribution: patent US20090175881A1
